The reported numbers originate from ChEMBL document CHEMBL4840303.

Test name: Clearance in Sprague dawley rat at 1 mg/kg, iv
Assay type: ADME, organism-based
Measurement conditions: in vivo

[
  {
    "Compound": "CN1CCN(c2ccc(C(=O)Nc3n[nH]c4c3CN(Cc3cc(F)cc(F)c3)C4(C)C)cc2)CC1",
    "clearance [mL/min/kg]": 8.08
  }
]

###

Test name: Volume of distribution at steady state in Sprague dawley rat at 1 mg/kg, iv
Type: ADME, organism-based
Measurement conditions: in vivo, read-out: Vdss

[
  {
    "Compound": "CN1CCN(c2ccc(C(=O)Nc3n[nH]c4c3CN(Cc3cc(F)cc(F)c3)C4(C)C)cc2)CC1",
    "Units of measure": "L/kg",
    "Vd": 0.892
  }
]

###

Test name: MRT in Sprague dawley rat at 1 mg/kg, iv
Assay type: ADME, organism-based
Measurement conditions: in vivo

[
  {
    "Compound": "CN1CCN(c2ccc(C(=O)Nc3n[nH]c4c3CN(Cc3cc(F)cc(F)c3)C4(C)C)cc2)CC1",
    "MRT, h": 1.85
  }
]

###

System: High affinity nerve growth factor receptor (Homo sapiens, UniProt P04629)
Sequence (P04629 whole entry): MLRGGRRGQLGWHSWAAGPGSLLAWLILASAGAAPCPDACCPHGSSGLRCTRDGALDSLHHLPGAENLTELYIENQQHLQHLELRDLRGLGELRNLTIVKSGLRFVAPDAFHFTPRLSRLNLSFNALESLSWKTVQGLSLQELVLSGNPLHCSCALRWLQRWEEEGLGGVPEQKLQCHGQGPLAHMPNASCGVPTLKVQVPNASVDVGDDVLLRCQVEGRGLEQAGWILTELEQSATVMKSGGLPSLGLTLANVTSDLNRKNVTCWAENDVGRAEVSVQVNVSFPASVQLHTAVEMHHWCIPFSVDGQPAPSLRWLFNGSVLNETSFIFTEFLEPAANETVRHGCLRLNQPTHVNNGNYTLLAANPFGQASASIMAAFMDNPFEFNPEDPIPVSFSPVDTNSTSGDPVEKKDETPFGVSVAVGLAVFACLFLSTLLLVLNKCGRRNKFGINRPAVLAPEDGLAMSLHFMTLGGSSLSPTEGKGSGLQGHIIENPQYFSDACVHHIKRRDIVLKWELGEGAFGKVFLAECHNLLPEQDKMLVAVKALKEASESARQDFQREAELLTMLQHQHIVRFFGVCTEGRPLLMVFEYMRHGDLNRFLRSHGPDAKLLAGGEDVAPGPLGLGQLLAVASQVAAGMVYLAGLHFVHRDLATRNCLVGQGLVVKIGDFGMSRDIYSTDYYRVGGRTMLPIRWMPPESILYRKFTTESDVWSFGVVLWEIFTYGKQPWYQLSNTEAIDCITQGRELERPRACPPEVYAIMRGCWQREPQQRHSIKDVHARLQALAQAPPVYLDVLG

[
  {
    "Compound": "CC1(C)c2[nH]nc(NC(=O)c3ccc(N4CCOCC4)cc3)c2CN1Cc1cccc(F)c1F",
    "IC50 (nM)": 29
  },
  {
    "Compound": "Cc1ccc(F)c(CN2Cc3c(NC(=O)c4ccccc4)n[nH]c3C2(C)C)c1",
    "IC50 (nM)": 880
  },
  {
    "Compound": "CC1(C)c2[nH]nc(NC(=O)c3ccc(Br)cc3)c2CN1Cc1cccc(F)c1F",
    "IC50 (nM)": 950
  },
  {
    "Compound": "CN(C)c1cccc(C(=O)Nc2n[nH]c3c2CN(Cc2cc(F)cc(F)c2)C3(C)C)c1",
    "IC50 (nM)": 270
  },
  {
    "Compound": "CC1(C)c2[nH]nc(NC(=O)c3ccccc3)c2CN1Cc1ccc(F)cc1F",
    "IC50 (nM)": 2320
  }
]

###

System: BDNF/NT-3 growth factors receptor (Homo sapiens)
Sequence (Q16620 whole entry, the tested form may be a part): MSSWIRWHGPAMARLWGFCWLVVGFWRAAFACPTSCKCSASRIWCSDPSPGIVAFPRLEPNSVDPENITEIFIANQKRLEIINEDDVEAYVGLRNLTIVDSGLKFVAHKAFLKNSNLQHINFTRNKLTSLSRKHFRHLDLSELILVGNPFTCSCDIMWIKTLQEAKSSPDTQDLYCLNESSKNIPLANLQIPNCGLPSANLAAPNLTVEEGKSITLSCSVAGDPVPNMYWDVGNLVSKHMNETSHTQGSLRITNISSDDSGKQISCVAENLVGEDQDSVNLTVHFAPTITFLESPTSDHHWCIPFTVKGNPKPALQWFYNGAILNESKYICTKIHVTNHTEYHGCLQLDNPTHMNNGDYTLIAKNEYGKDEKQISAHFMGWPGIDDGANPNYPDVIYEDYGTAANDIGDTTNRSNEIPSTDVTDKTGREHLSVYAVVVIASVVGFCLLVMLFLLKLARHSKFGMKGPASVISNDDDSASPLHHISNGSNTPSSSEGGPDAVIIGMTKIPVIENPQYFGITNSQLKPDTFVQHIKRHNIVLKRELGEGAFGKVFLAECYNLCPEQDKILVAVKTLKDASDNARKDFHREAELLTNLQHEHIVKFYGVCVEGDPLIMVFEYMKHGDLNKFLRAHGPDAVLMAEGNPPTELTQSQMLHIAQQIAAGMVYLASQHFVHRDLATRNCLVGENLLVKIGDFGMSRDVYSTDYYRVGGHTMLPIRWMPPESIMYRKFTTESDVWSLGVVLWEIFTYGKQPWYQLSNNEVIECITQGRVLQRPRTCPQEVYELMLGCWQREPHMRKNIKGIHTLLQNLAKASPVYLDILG
Test name: Inhibition of N-terminal GST-tagged human TRKB (456 to 822 residues) expressed in baculovirus infected Sf21 cells using TK as substrate in presence of ATP measured after 40 mins by HTRF assay
The label rule met is reserved for IC50 strictly under 30 nM; rule not met covers values equal to or above it.

[
  {
    "Compound": "CN1CCN(c2cccc(C(=O)Nc3n[nH]c4c3CN(Cc3cc(F)cc(F)c3)C4(C)C)c2)CC1",
    "Assigned class": "rule not met"
  },
  {
    "Compound": "CN1CCN(c2ccc(C(=O)Nc3n[nH]c4c3CN(Cc3cc(F)cc(F)c3)C4(C)C)cc2)CC1",
    "Assigned class": "rule met"
  },
  {
    "Compound": "CN1CCN(c2ccc(C(=O)Nc3n[nH]c4c3CN(Cc3cccc(F)c3F)C4(C)C)cc2)CC1",
    "Assigned class": "rule met"
  },
  {
    "Compound": "CC1(C)c2[nH]nc(NC(=O)c3cccc(N4CCOCC4)c3)c2CN1Cc1cc(F)cc(F)c1",
    "Assigned class": "rule not met"
  },
  {
    "Compound": "CC1(C)c2[nH]nc(NC(=O)c3ccc(N4CCOCC4)cc3)c2CN1Cc1cccc(F)c1F",
    "Assigned class": "rule not met"
  },
  {
    "Compound": "CC1(C)c2[nH]nc(NC(=O)c3ccc(N4CCOCC4)cc3)c2CN1Cc1cc(F)cc(F)c1",
    "Assigned class": "rule met"
  }
]
